This collection of values is drawn from ChEMBL document CHEMBL1201862.

The following molecules are listed with their measured GI50 values.
system: ACHN; assay: NCI tumour cell line growth inhibition, 48 h
Active and inactive are the calls of the source. No stated cut-off is given here; in the data, active = GI50 up to about 1.1 µM and inactive = higher.
measuredMetric: GI50

C[N+](C)(C)c1ccc(C(N)C(=O)O)cc1 (stereo not given): > 100 µM (inactive)
COc1ccc(-c2cc(-c3ccc(C)cc3)n(C3OC(COC(C)=O)C(OC(C)=O)C(OC(C)=O)C3OC(C)=O)c(=S)c2C#N)cc1 (stereo not given): > 100 µM (inactive)
CCOC(=O)c1nnsc1NC(=O)Nc1ccc(Cl)cc1: > 100 µM (inactive)
Cc1nn(C(=O)c2ccccc2O)c2c1C(c1ccco1)SC(=N)N2 (stereo not given): 3.42 µM (inactive)
CSc1nc(SC)c2c(C)c(Br)[nH]c2n1: > 100 µM (inactive)
O=C1SC(SCc2ccccc2)=NC12CC2c1ccccc1 (stereo not given): 17.9 µM (inactive)
O=C1c2ccccc2C(=O)c2[nH]c(Cc3ccccc3F)nc21: 53.5 µM (inactive)
O=C(Nc1ccccc1)c1cc(S(=O)(=O)n2ccnc2O)c(S)cc1Cl: > 100 µM (inactive)
COC(=O)C[C@H](CCSC)NC(=O)C[C@H](CCSC)NC(=O)C[C@H](CCSC)NC(=O)OC(C)(C)C: 36.9 µM (inactive)
CCCCOCCOCCOC1=CC(=O)c2c(O)ccc(O)c2C1=O: 1.66 µM (inactive)
O=C(Nc1sccc1S(=O)(=O)c1ccc(Cl)cc1)c1ccc(Cl)cc1Cl: > 100 µM (inactive)
O=S(=O)(/C=C/c1ccc(F)cc1)Cc1ccc(CS(=O)(=O)/C=C/c2ccc(F)cc2)cc1: > 100 µM (inactive)
Cc1cc(S(=O)(=O)Nc2nc(N)nc(N3N=CCC3C)n2)c(SCC(=O)O)cc1Cl (stereo not given): > 10 µM (inactive)
CC(=O)OCC1OC(N2C(=O)[C@@H](Oc3ccccc3)[C@H]2/C=C/c2ccccc2)C(OC(C)=O)C(OC(C)=O)C1OC(C)=O (stereo not given in full): > 100 µM (inactive)
CN(C)CCCNC(=O)c1cc(NS(=O)(=O)c2ccc3c(c2)C(=O)c2ccccc2C3=O)cn1C: 14.6 µM (inactive)
CC12CCC3=C(CSC4=C3CSc3ccccc34)C1=CCCC2=O (stereo not given): 69.2 µM (inactive)
N/C(COc1ccc(Cl)cc1)=N\NC(=O)c1ccncc1: > 100 µM (inactive)
O=C(CCO)OCCCCCC/C=C\CCCCCC/C=C\CCCCCCCCOC(=O)CCO: 23.9 µM (inactive)
O=C1/C(=C\c2cccc(Oc3ccccc3)c2)SC(c2ccccc2)N1c1ccc(Cl)cc1 (stereo not given): 20.2 µM (inactive)
CCOc1ccccc1/N=N/C1C(=O)N(C(=O)CC(=O)Nc2ccccc2Cl)N=C1C (stereo not given): > 100 µM (inactive)

###

test system: KM12; assay: NCI tumour cell line growth inhibition, 48 h
Calls of active or inactive are those of the source. Cut-off read from the data, not from the text of the source: active = GI50 up to about 1.1 µM and inactive = higher.
Possible outcomes: active, inactive

CC1=NN(C(=O)c2ccc(Cl)cc2)C(=O)/C1=C/c1ccccc1O: inactive
O=C(CCN1CCCCC1)Nc1ccc2sc3ccccc3c(=O)c2n1: inactive
NC(=O)ON=C1CCN(Cc2ccccc2)CC1: inactive
Cc1oc(N)c(S(=O)(=O)c2ccc(Cl)cc2)c1C: inactive
O=C(Nc1ccc(Cl)c(Cl)c1)N1N=C2c3ccccc3CCC2C1c1ccc(Cl)cc1 (configuration not stated): inactive
CN1C(=O)C23CC4=CC=CC(O)C4N2C(=O)C1(CO)SS3 (configuration not stated): active
O=C1C2=C(CCC2)Nc2cccc3ncn1c23: inactive
C=CCc1c(O)c2ccccc2[nH]c1=O: inactive
CC12CCC3=C(CSC4=C3CSc3ccccc34)C1=CCCC2=O (configuration not stated): inactive
NCCP(=O)(O)O: inactive
Oc1ccc(Cl)cc1/C=N/c1cnc2ccccc2c1: inactive
C=CCN(CCN(CC=C)S(=O)(=O)c1ccc(C)cc1)S(=O)(=O)c1ccc(C)cc1: inactive
CC1CC[C@@]23CCC4(C)[C@@](C=CC5[C@@]6(C)CCC(=O)C(C)(C)C6CC[C@]54C)(OC2=O)[C@@H]3[C@H]1C (some centres not stated): inactive
COC(=O)/C=C1\C(=O)C=C2[C@@H]3C[C@H]4C[C@H](CC[C@@]4(C)N21)C3(C)NC(C)=O (some centres not stated): inactive
O=C(O)c1ccc(NC(=O)C2C(=O)C(=O)N(c3ccc(C(=O)O)cc3)C2=O)cc1 (configuration not stated): inactive
Nc1ncnc2c1cnn2Cc1cn(COCC(O)CO)nn1 (configuration not stated): inactive
CN1Cc2c(nc(-c3ccc(Br)cc3)c[n+]2[O-])N(C)C1: inactive
C=CC(=C)CCC(Br)C(C)(C)Cl (configuration not stated): inactive
COc1ccccc1NC(=O)C1=C(C)NC(C)=C(C(=O)Nc2ccccc2OC)C1c1ccccc1OC: inactive
CC12CCC[C@@](C)(C(=O)OC3OC(CO)C(O)C(O)C3O)[C@H]1CCC13CC4CC(OC4(CO)[C@H]1O)[C@@H]23 (some centres not stated): inactive
Nc1nc(=O)[nH]c2c1cnn2COCCO: inactive
CN(C)C[C@H]1CC[C@@H](CN(C)C)C1=O: inactive
